biological target: Nuclear factor NF-kappa-B complex (Homo sapiens) (UniProt Q00653+P19838+Q04206); test: Inhibition of NF-kappaB (unknown origin) transcriptional activity in LPS-induced mouse RAW264.7 cells at 30 uM after 1 hr by secreted alkaline phosphatase assay relative to control; assay type: cell-based
Sequence (P19838 whole entry, looked up): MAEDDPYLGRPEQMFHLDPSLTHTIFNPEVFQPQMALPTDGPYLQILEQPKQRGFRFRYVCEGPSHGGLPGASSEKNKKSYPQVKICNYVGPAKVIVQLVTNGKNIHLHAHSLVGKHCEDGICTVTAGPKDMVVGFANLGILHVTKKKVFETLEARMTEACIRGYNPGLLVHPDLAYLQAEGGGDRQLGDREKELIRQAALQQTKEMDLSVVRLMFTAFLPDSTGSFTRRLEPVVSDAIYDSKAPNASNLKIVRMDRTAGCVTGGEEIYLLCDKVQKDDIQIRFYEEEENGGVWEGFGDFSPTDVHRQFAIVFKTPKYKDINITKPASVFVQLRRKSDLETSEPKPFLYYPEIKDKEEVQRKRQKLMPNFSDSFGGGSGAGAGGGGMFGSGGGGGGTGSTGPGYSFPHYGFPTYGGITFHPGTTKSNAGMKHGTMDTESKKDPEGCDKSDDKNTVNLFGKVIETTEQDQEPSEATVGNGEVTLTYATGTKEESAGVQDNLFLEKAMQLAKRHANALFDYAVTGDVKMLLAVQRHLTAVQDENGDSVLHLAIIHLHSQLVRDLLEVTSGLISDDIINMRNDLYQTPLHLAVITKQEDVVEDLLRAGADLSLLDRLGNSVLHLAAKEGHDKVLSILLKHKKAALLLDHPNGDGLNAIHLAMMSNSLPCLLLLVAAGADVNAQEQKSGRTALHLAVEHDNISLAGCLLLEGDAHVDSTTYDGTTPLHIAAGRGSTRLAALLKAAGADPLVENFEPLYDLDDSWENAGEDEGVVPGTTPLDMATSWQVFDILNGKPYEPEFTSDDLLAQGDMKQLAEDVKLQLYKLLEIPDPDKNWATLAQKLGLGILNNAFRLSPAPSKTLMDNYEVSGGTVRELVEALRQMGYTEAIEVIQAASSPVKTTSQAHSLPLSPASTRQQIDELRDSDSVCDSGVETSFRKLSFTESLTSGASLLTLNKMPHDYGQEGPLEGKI
Sequence (Q00653 whole entry, looked up): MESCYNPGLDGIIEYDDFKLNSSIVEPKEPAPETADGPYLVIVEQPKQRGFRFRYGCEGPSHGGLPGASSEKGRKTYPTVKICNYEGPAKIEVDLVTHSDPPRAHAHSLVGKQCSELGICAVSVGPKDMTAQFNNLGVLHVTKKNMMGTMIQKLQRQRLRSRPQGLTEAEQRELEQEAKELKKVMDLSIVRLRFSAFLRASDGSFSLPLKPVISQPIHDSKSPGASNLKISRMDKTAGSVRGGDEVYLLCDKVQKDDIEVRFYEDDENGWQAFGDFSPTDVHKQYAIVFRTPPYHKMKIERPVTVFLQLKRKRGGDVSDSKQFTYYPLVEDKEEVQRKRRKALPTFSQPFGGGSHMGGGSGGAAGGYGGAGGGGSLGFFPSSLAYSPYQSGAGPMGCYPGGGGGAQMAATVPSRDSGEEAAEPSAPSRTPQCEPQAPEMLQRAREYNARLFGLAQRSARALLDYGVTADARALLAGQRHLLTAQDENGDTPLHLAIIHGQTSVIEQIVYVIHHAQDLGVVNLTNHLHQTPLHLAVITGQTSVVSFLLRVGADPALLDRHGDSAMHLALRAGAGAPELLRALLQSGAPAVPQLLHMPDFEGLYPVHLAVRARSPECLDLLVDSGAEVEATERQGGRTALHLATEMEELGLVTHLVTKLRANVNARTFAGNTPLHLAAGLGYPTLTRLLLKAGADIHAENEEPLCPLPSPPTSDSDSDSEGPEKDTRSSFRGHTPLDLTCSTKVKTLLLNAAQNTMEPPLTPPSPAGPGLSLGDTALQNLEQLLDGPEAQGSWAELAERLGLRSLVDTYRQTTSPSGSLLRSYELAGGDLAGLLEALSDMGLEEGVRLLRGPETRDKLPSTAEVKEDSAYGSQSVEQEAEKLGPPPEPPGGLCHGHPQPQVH
Sequence (Q04206 whole entry, looked up): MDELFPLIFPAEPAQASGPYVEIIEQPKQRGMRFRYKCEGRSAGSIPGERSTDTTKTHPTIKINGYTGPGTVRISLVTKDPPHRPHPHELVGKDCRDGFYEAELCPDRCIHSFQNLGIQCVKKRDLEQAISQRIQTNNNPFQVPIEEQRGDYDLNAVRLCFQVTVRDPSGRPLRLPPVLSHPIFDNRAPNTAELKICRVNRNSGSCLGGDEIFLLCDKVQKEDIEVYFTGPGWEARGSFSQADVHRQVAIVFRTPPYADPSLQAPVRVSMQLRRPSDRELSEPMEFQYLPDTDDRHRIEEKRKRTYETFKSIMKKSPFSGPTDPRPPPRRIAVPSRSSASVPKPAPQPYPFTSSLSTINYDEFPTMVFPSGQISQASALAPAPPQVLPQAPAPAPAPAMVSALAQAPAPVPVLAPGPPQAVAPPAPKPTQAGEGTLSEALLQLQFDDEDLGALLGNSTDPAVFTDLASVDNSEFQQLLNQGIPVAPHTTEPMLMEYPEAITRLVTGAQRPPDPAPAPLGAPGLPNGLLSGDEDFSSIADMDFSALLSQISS
Where inhibition equals or exceeds 30%, the correct label is criterion met; where it does not, the label is criterion not met.

{"compound": "O=C(Nc1cc(Cl)ccc1Cl)c1cc2ccccc2o1", "label-class": "criterion met"}
{"compound": "O=C(Nc1cc(Cl)cc(Cl)c1)c1cc2ccccc2o1", "label-class": "criterion not met"}
{"compound": "Cc1ccc(NC(=O)c2cc3ccccc3o2)cc1", "label-class": "criterion met"}
{"compound": "O=C(Nc1cccc(Cl)c1)C1Cc2ccccc2O1 (configuration not stated)", "label-class": "criterion met"}
{"compound": "COc1cc(NC(=O)c2cc3ccccc3o2)cc(OC)c1", "label-class": "criterion met"}
{"compound": "COc1ccc(NC(=O)c2cc3ccccc3o2)cc1OC", "label-class": "criterion met"}
{"compound": "O=C(Nc1ccc([N+](=O)[O-])cc1)c1cc2ccccc2o1", "label-class": "criterion met"}
{"compound": "O=C(Nc1cc(C(F)(F)F)ccc1C(F)(F)F)c1cc2ccccc2o1", "label-class": "criterion not met"}
{"compound": "O=C(Nc1ccccc1O)C1Cc2ccccc2O1 (configuration not stated)", "label-class": "criterion not met"}
{"compound": "O=C(Nc1cc(Cl)ccc1Cl)C1Cc2ccccc2O1 (configuration not stated)", "label-class": "criterion met"}
{"compound": "Cc1ccc(NC(=O)C2Cc3ccccc3O2)cc1 (configuration not stated)", "label-class": "criterion met"}
{"compound": "O=C(Nc1ccccc1Cl)c1cc2ccccc2o1", "label-class": "criterion met"}
{"compound": "O=C(Nc1ccccc1[N+](=O)[O-])C1Cc2ccccc2O1 (configuration not stated)", "label-class": "criterion not met"}
{"compound": "O=C(Nc1ccc(O)cc1)C1Cc2ccccc2O1 (configuration not stated)", "label-class": "criterion not met"}
{"compound": "O=C(Nc1ccccc1)C1Cc2ccccc2O1 (configuration not stated)", "label-class": "criterion not met"}
{"compound": "Cc1ccc(NC(=O)c2cc3ccccc3o2)cc1C", "label-class": "criterion met"}
{"compound": "O=C(Nc1cccc(C(F)(F)F)c1)c1cc2ccccc2o1", "label-class": "criterion met"}
{"compound": "O=C(Nc1cccc(O)c1)C1Cc2ccccc2O1 (configuration not stated)", "label-class": "criterion not met"}
{"compound": "Cc1cc(C)cc(NC(=O)c2cc3ccccc3o2)c1", "label-class": "criterion met"}
{"compound": "O=C(Nc1cc(C(F)(F)F)cc(C(F)(F)F)c1)c1cc2ccccc2o1", "label-class": "criterion met"}
{"compound": "Cc1cccc(NC(=O)c2cc3ccccc3o2)c1", "label-class": "criterion met"}
{"compound": "Cc1ccc(NC(=O)C2Cc3ccccc3O2)cc1C (configuration not stated)", "label-class": "criterion met"}

* * *

experiment: Cytotoxicity against human PC3 cells assessed as growth inhibition after 72 hrs by sulforhodamine B assay; assay type: functional; details: PC-3, 72 h
Mark Met for GI50 under 2000 nM, Not met if at or over.

{"compound": "S=C(S)N1CCCC1 [PYRROLIDINE DITHIOCARBAMATE]", "label-class": "Met"}
{"compound": "O=C(Nc1cccc(O)c1)C1Cc2ccccc2O1 (stereo not given)", "label-class": "Not met"}
{"compound": "COc1cccc2c1C(=O)c1c(O)c3c(c(O)c1C2=O)C[C@@](O)(C(=O)CO)C[C@@H]3O[C@H]1C[C@H](N)[C@H](O)[C@H](C)O1 [DOXORUBICIN]", "label-class": "Met"}
{"compound": "O=C(Nc1ccc([N+](=O)[O-])cc1)C1Cc2ccccc2O1 (stereo not given)", "label-class": "Met"}
{"compound": "O=C(Nc1ccc(O)cc1)c1cc2ccccc2o1", "label-class": "Not met"}
